Experiment: Multiple component PK study in rat plasma after p.o. GDDP (HPLC-MS)
Details: Sprague-Dawley, rat, plasma, po, 0.8 g/kg
MRT last overview
Reply numerically in h, unit not repeated.

// solved cases for MRT last follow
[
  {
    "compound": "Cc1coc2c1C(=O)C(=O)c1c-2ccc2c1CCCC2(C)C [TS IIA, tanshinone (TS) IIA]",
    "value unit": "h",
    "MRT last": 5.23
  },
  {
    "compound": "Cc1cccc2c3c(ccc12)C1=C(C(=O)C3=O)[C@@H](C)CO1 [DHTS I, dihydrotanshinone I]",
    "value unit": "h",
    "MRT last": 5.05
  }
]

Lab note: next compound to report on.
Query: Using known records, supply MRT last for CC(C)=CCC[C@](C)(O[C@@H]1O[C@H](CO[C@@H]2O[C@H](CO)[C@@H](O)[C@H](O)[C@H]2O)[C@@H](O)[C@H](O)[C@H]1O)[C@H]1CC[C@]2(C)[C@@H]1[C@H](O)C[C@@H]1[C@@]3(C)CC[C@H](O[C@@H]4O[C@H](CO)[C@@H](O)[C@H](O)[C@H]4O[C@@H]4O[C@H](CO)[C@@H](O)[C@H](O)[C@H]4O)C(C)(C)[C@@H]3CC[C@]12C [Rb1, ginsenoside Rb1]
Result: 9.63

###

Assay: Multiple component PK study in rat plasma after p.o. GDDP (HPLC-MS)
Settings: Sprague-Dawley, rat, plasma, po, 0.4 g/kg
endpoint label: Tmax

[
  {
    "compound": "CC(C)=CCC[C@](C)(O[C@@H]1O[C@H](CO)[C@@H](O)[C@H](O)[C@H]1O)[C@H]1CC[C@]2(C)[C@@H]1[C@H](O)C[C@@H]1[C@@]3(C)CC[C@H](O[C@@H]4O[C@H](CO)[C@@H](O)[C@H](O)[C@H]4O[C@@H]4O[C@H](CO)[C@@H](O)[C@H](O)[C@H]4O)C(C)(C)[C@@H]3CC[C@]12C [Rd, ginsenoside Rd]",
    "Tmax": "9 h"
  },
  {
    "compound": "Cc1cccc2c3c(ccc12)C1=C(C(=O)C3=O)[C@@H](C)CO1 [DHTS I, dihydrotanshinone I]",
    "Tmax": "1.38 h"
  },
  {
    "compound": "CC(C)=CCC[C@](C)(O[C@@H]1O[C@H](CO)[C@@H](O)[C@H](O)[C@H]1O)[C@H]1CC[C@]2(C)[C@@H]1[C@H](O)C[C@@H]1[C@@]3(C)CC[C@H](O)C(C)(C)[C@@H]3[C@@H](O[C@@H]3O[C@H](CO)[C@@H](O)[C@H](O)[C@H]3O[C@@H]3OC[C@@H](O)[C@H](O)[C@H]3O)C[C@]12C [R1, notoginsenoside R1]",
    "Tmax": "0.51 h"
  },
  {
    "compound": "CC(C)=CCC[C@](C)(O[C@@H]1O[C@H](CO[C@@H]2O[C@H](CO)[C@@H](O)[C@H](O)[C@H]2O)[C@@H](O)[C@H](O)[C@H]1O)[C@H]1CC[C@]2(C)[C@@H]1[C@H](O)C[C@@H]1[C@@]3(C)CC[C@H](O[C@@H]4O[C@H](CO)[C@@H](O)[C@H](O)[C@H]4O[C@@H]4O[C@H](CO)[C@@H](O)[C@H](O)[C@H]4O)C(C)(C)[C@@H]3CC[C@]12C [Rb1, ginsenoside Rb1]",
    "Tmax": "3.25 h"
  }
]

Query: Using known records, supply Tmax for C[C@H]1COC2=C1C(=O)C(=O)c1c2ccc2c1CCCC2(C)C
Result: 0.25 h

Query: Using known records, supply Tmax for Cc1coc2c1C(=O)C(=O)c1c-2ccc2c(C)cccc12
Result: 1.25 h

###

Experiment: Multiple component PK study in rat plasma after p.o. GDDP (HPLC-MS)
Conditions: Sprague-Dawley, rat, plasma, po, 0.8 g/kg
endpoint label: AUC(0-inf) (ng·h/mL)
Reply numerically in ng·h/mL, unit not repeated.

// solved cases for AUC(0-inf) follow
[
  {
    "molecule": "CC(C)=CCC[C@](C)(O[C@@H]1O[C@H](CO)[C@@H](O)[C@H](O)[C@H]1O)[C@H]1CC[C@]2(C)[C@@H]1[C@H](O)C[C@@H]1[C@@]3(C)CC[C@H](O[C@@H]4O[C@H](CO)[C@@H](O)[C@H](O)[C@H]4O[C@@H]4O[C@H](CO)[C@@H](O)[C@H](O)[C@H]4O)C(C)(C)[C@@H]3CC[C@]12C [Rd, ginsenoside Rd]",
    "endpoint label": "AUC(0-inf)",
    "value unit": "ng·h/mL",
    "recorded measurement": 378
  },
  {
    "molecule": "C[C@H]1COC2=C1C(=O)C(=O)c1c2ccc2c1CCCC2(C)C [CTS, cryptotanshinone]",
    "endpoint label": "AUC(0-inf)",
    "value unit": "ng·h/mL",
    "recorded measurement": 3.24
  },
  {
    "molecule": "CC(C)=CCC[C@](C)(O[C@@H]1O[C@H](CO[C@@H]2O[C@H](CO)[C@@H](O)[C@H](O)[C@H]2O)[C@@H](O)[C@H](O)[C@H]1O)[C@H]1CC[C@]2(C)[C@@H]1[C@H](O)C[C@@H]1[C@@]3(C)CC[C@H](O[C@@H]4O[C@H](CO)[C@@H](O)[C@H](O)[C@H]4O[C@@H]4O[C@H](CO)[C@@H](O)[C@H](O)[C@H]4O)C(C)(C)[C@@H]3CC[C@]12C [Rb1, ginsenoside Rb1]",
    "endpoint label": "AUC(0-inf)",
    "value unit": "ng·h/mL",
    "recorded measurement": 1350
  }
]

Lab note: next molecule to report on.
Query: Using known records, supply AUC(0-inf) for Cc1cccc2c3c(ccc12)C1=C(C(=O)C3=O)[C@@H](C)CO1 [DHTS I, dihydrotanshinone I]
Result: 16.1

###

Stability: Measured overview
Test: Stability tests in rat plasma (QC samples, HPLC-MS)
Conditions: 24h in auto-sampler vials, spiked 400 ng/mL, n=5
Reply numerically in ng/mL, unit not repeated.

// solved cases for Stability: Measured follow
[
  {
    "compound": "CC(C)=CCC[C@](C)(O[C@@H]1O[C@H](CO[C@@H]2O[C@H](CO)[C@@H](O)[C@H](O)[C@H]2O)[C@@H](O)[C@H](O)[C@H]1O)[C@H]1CC[C@]2(C)[C@@H]1[C@H](O)C[C@@H]1[C@@]3(C)CC[C@H](O[C@@H]4O[C@H](CO)[C@@H](O)[C@H](O)[C@H]4O[C@@H]4O[C@H](CO)[C@@H](O)[C@H](O)[C@H]4O)C(C)(C)[C@@H]3CC[C@]12C [Rb1, ginsenoside Rb1]",
    "recorded measurement": 386.10
  },
  {
    "compound": "Cc1coc2c1C(=O)C(=O)c1c-2ccc2c(C)cccc12 [TS I, tanshinone I]",
    "recorded measurement": 470.56
  }
]

Lab note: next compound to report on.
Query: Using known records, supply Stability: Measured for Cc1cccc2c3c(ccc12)C1=C(C(=O)C3=O)[C@@H](C)CO1 [DHTS I, dihydrotanshinone I]
Result: 464.67

###

Stability: Measured overview
Test: Stability tests in rat plasma (QC samples, HPLC-MS)
Settings: Placing plasma for 6h at 4°C, spiked 1600 ng/mL, n=5
Reply numerically in ng/mL, unit not repeated.

[
  {
    "compound": "C[C@H]1COC2=C1C(=O)C(=O)c1c2ccc2c1CCCC2(C)C [CTS, cryptotanshinone]",
    "recorded measurement": 1890.21
  }
]

Query: Using known records, supply Stability: Measured for CC(C)=CCC[C@](C)(O[C@@H]1O[C@H](CO)[C@@H](O)[C@H](O)[C@H]1O)[C@H]1CC[C@]2(C)[C@@H]1[C@H](O)C[C@@H]1[C@@]3(C)CC[C@H](O[C@@H]4O[C@H](CO)[C@@H](O)[C@H](O)[C@H]4O[C@@H]4O[C@H](CO)[C@@H](O)[C@H](O)[C@H]4O)C(C)(C)[C@@H]3CC[C@]12C [Rd, ginsenoside Rd]
Result: 1891.74

Query: Using known records, supply Stability: Measured for Cc1cccc2c3c(ccc12)C1=C(C(=O)C3=O)[C@@H](C)CO1 [DHTS I, dihydrotanshinone I]
Result: 1735.14

###

Experiment: Aqueous solubility test (vortexing in water)
Format: physicochemical
Details: thermodynamic from solid; determined, water, 25 °C, 1 atm
solubility at 5 min overview

// solved cases for solubility at 5 min follow
[
  {
    "compound": "O=C(O)C(O)Cc1ccc(O)c(O)c1 (stereo not drawn)",
    "recorded measurement": "> 10000 µg/mL"
  },
  {
    "compound": "O=Cc1ccc(O)c(O)c1",
    "recorded measurement": "> 10000 µg/mL"
  }
]

Query: Using known records, supply solubility at 5 min for CC(C)=CCC[C@](C)(O[C@@H]1O[C@H](CO)[C@@H](O)[C@H](O)[C@H]1O)[C@H]1CC[C@]2(C)[C@@H]1[C@H](O)C[C@@H]1[C@@]3(C)CC[C@H](O)C(C)(C)[C@@H]3[C@@H](O[C@@H]3O[C@H](CO)[C@@H](O)[C@H](O)[C@H]3O[C@@H]3OC[C@@H](O)[C@H](O)[C@H]3O)C[C@]12C [R1, notoginsenoside R1]
Result: > 10000 µg/mL

Data provenance is paper PMC6308302.
